target-entity: Hsp90 alpha (Homo sapiens)
Construct: Hsp90alpha recombinant enzyme (BPS Bioscience Hsp90α assay kit, Cat #50294)
test-details: fluorescence polarization competition with FITC-labeled geldanamycin
test-readout: IC50 (nM)
# unit: nM | format: bare number

Q: Give the measured IC50 of CC(C)c1cc(-c2nnc(O)n2-c2ccc3c(ccn3CCNC(=O)CCCC[C@@H]3SC[C@@H]4NC(=O)N[C@@H]43)c2)c(O)cc1O [STA-12-7191] .
A: 62
